system_name: Platelet-activating factor receptor (Mus musculus) (UniProt Q62035)
Sequence (Q62035 whole entry): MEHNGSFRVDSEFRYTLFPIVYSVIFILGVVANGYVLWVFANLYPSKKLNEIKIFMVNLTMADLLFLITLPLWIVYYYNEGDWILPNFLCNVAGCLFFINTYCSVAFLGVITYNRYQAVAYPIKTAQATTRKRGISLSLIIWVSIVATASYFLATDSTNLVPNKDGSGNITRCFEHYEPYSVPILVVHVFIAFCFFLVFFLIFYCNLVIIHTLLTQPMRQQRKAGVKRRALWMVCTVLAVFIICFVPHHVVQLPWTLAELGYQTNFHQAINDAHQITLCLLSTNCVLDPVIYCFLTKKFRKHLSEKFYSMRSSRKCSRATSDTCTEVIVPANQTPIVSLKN
protocol_text: Antagonism of Platelet activating factor (PAF) activity in mice after oral administration, assayed by PAF-induced death
Assay type: functional, organism-based
quantity_measured: ED50

Entry Cc1nnc2n1-c1sc3c(c1C(c1ccccc1Cl)=NC2C)CCN(Cc1cccc(/C(=N\OCCCCC(=O)O)c2cccnc2)c1)C3 (configuration not stated) ; ED50 = > 10 mg/kg

ED50 reading for Cc1nnc2n1-c1sc3c(c1C(c1ccccc1Cl)=NC2C)CCN(Cc1cccc(/C(=N\OCCCCC(=O)OCCCc2cccnc2)c2cccnc2)c1)C3 (configuration not stated) : > 10 mg/kg

Measured ED50, Cc1nnc2n1-c1sc3c(c1C(c1ccccc1Cl)=NC2C)CCN(Cc1cccc(/C(=N\OCCCCC(=O)OCc2ccccc2)c2cccnc2)c1)C3 (configuration not stated) : > 10 mg/kg

// field: ED50; key: CCOC(=O)CCCC/C=C(\c1ccc(CN2CCc3c(sc4c3C(c3ccccc3Cl)=NC(C)c3nnc(C)n3-4)C2)cc1)c1cccnc1 (configuration not stated) ; value = 1.6 mg/kg

Note to self: ED50 recorded for CCOC(=O)C1=C(c2ccc(-n3c(C)nc4cnccc43)cc2)NC(C)=C(C(=O)Nc2ccccn2)C1c1ccccc1Cl (configuration not stated) was 1.55 mg/kg

Given item CCOC(=O)CCCCO/N=C(/c1cccnc1)c1ccccc1C(=O)N1CCc2c(sc3c2C(c2ccccc2Cl)=NC(C)c2nnc(C)n2-3)C1 (configuration not stated) , the value recorded as its ED50 is > 10 mg/kg

Query molecule follows.
molecule CCOC(=O)CCCCO/N=C(\c1ccc(CN2CCc3c(sc4c3C(c3ccccc3Cl)=NC(C)c3nnc(C)n3-4)C2)cc1)c1cccnc1 (configuration not stated) , ED50 observed: > 10 mg/kg
